target: PIK3CD (human) (UniProt O00329); assay: KINOMEscan competition binding; details: compound 1.0 µM
Sequence (O00329 whole entry, looked up): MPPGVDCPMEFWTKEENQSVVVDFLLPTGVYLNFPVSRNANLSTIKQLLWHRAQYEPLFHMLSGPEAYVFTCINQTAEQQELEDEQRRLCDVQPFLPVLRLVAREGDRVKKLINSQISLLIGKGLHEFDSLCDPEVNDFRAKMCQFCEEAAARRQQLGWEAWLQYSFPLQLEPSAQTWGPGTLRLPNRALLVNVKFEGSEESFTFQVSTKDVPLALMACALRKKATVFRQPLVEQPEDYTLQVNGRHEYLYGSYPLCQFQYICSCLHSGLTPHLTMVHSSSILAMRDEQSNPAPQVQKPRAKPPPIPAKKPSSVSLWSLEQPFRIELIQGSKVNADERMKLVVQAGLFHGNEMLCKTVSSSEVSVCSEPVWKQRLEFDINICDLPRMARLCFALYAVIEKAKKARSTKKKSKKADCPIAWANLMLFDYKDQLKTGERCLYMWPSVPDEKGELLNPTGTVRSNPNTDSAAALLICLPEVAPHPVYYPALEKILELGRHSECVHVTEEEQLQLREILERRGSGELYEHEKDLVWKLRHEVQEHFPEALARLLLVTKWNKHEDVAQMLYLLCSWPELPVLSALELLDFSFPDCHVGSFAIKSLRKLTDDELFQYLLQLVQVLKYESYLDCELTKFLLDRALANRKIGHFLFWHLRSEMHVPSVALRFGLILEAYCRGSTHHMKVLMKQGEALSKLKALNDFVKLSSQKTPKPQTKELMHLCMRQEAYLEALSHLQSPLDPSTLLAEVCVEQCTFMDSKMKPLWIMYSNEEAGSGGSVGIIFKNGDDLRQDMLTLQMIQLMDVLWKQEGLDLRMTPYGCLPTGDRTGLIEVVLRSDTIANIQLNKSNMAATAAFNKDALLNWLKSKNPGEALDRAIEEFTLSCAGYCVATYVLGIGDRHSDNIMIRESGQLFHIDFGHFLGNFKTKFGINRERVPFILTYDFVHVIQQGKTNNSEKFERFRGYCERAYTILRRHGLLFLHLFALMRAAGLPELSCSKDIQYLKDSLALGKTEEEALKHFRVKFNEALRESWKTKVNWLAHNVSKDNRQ

chemical_string: CN(C)C/C=C/C(=O)Nc1cccc(C(=O)Nc2ccc(Nc3nccc(-c4c(-c5ccccc5)nn5ccccc45)n3)cc2)c1
measure_unit: %
kinase still bound, per cent of control: 95
//
chemical_string: Cc1cc(NC(=O)c2cccc(NC(=O)/C=C/CN(C)C)c2)ccc1Nc1nccc(-c2cccnc2)n1
measure_unit: %
kinase still bound, per cent of control: 95
//
chemical_string: CN(C)C/C=C/C(=O)Nc1cccc(C(=O)Nc2ccc(Nc3nccc(/C(C#N)=C4\Nc5ccccc5S4)n3)cc2)c1
measure_unit: %
kinase still bound, per cent of control: 100
//
chemical_string: CN(C)C/C=C/C(=O)Nc1cccc(C(=O)Nc2ccc(Nc3nccc(-c4cccnc4)n3)cc2)c1
measure_unit: %
kinase still bound, per cent of control: 100
